The origin of these recorded values is ChEMBL document CHEMBL1139400.

Each entry below carries its recorded IC50.
target: Fatty-acid amide hydrolase 1 (Homo sapiens, UniProt O00519); assay: Inhibition of human FAAH preincubated for 20 mins
Give the number; nM is assumed, so skip it.

{"columns": ["Compound structure", "Attribute measured", "Display unit", "Obs value"],
 "data": [
  ["O=C(Nc1cccc(Cl)c1)N1CCN(c2nc(-c3ccccc3)ns2)CC1", "IC50", "nM", 257]
]}

// query IC50 for Cc1cccc(-c2nsc(N3CCN(C(=O)Nc4ccccc4)CC3)n2)c1 ?
// result 69

###

Biological target: Fatty-acid amide hydrolase 1 (Homo sapiens, UniProt O00519)
Sequence (O00519 whole entry): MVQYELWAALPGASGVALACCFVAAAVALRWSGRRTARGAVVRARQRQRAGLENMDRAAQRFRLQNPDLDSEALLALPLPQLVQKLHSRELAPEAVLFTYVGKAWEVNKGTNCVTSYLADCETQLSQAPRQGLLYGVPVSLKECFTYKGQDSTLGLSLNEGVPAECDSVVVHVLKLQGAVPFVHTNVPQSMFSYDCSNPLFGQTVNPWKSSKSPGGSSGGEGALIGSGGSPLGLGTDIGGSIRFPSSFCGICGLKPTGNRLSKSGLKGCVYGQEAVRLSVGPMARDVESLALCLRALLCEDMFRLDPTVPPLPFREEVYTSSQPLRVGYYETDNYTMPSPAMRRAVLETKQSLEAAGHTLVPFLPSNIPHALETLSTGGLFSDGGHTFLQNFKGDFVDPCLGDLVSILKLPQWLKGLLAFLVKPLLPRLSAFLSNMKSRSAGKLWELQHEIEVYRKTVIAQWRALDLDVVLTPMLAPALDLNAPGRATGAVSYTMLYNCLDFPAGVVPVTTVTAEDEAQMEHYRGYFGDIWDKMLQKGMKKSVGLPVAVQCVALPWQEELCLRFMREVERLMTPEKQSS
Experiment: Inhibition of human FAAH preincubated for 20 mins
Please respond with met when measured IC50 is strictly beneath 300 nM, and with not met in all other cases.

Answered cases to consult:
{"columns": ["Compound structure", "Label value"],
 "data": [
  ["Cc1ccc(NC(=O)N2CCN(c3nc(-c4ccccc4)ns3)CC2)cc1", "not met"],
  ["O=C(Nc1ccc(Cl)cc1)N1CCN(c2nc(-c3ccccc3)ns2)CC1", "not met"],
  ["O=C(Nc1cccc(F)c1)N1CCN(c2nc(-c3ccccc3)ns2)CC1", "met"],
  ["O=C(Nc1ccccc1)N1CCN(c2nc(-c3ccc(F)cc3)ns2)CC1", "not met"]
]}

Lab note: next molecule to report on.
// query Strictly below 300 nM: is that where IC50 of COc1ccc(NC(=O)N2CCN(c3nc(-c4ccccc4)ns3)CC2)cc1 sits?
// result met
